System: Escherichia coli R12 Z-338
Assay: MIC, agar dilution method, pH 7.2
Format: cell-based
Conditions: R12Z338, pH 7.2, E. coli R12 Z-338, 1**: gentamicin, producing adenylsynthetase, read-out: Minimum inhibition concentration (MIC)
Description: Measurement was carried out according to the agar dilution method, using a medium of pH 8.0, or the Japanese Antibiotic Medicament Standard, using a medium of pH 7.2 Units are in mcg/ml. **1: gentamicin, producing adenylsynthetase.
Recorded measurements of MIC, one per entry
Write the number in µg/mL without appending the unit.

Take a look at these entries with their results.
{"molecule": "CO[C@H]1[C@@H](O)[C@H](N)[C@@H](O[C@H]2O[C@H]([C@H](C)N)CC[C@H]2N)[C@H](O)[C@@H]1N(C)C(=O)CO", "unit-abbreviation": "µg/mL", "observed-measurement": 25}
{"molecule": "CO[C@H]1[C@@H](O)[C@H](N)[C@@H](O[C@H]2O[C@H]([C@H](C)N)CC[C@H]2N)[C@H](O)[C@@H]1N(C)CC(O)CCN (stereo partly drawn)", "unit-abbreviation": "µg/mL", "observed-measurement": 12.5}

Alright, here's another molecule for you.
# query: MIC | item CO[C@H]1[C@@H](O)[C@H](N)[C@@H](O[C@H]2O[C@H]([C@H](C)N)CC[C@H]2N)[C@H](O)[C@@H]1N(C)C(=O)CNC(N)=O [Compound 3, 4-N-hydantoylfortimicin B, reference compound] | system: Escherichia coli R12 Z-338
6.25

Each recorded value in this set is attributed to patent US4220755A.
